EC50 reference
- STUDY_TARGET: T1, human SLITRK6 on cells (human, UniProt Q9H5Y7 27-841)
- T1 construct: whole, on cells
- EXPERIMENT: flow cytometry on RT112/84 cells
ASSAY_ENDPOINT: EC50

binder="phA290 (antibody, V domains shown, From phage display, then full-length construction; Only the variable regions are tied to the name) VH: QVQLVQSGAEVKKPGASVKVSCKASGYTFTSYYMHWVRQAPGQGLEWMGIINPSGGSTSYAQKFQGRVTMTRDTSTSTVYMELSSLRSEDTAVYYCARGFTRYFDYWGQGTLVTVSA VL: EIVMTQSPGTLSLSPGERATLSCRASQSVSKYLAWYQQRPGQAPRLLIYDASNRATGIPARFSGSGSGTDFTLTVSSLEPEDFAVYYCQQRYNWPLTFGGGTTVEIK" result="0.08 nM"
binder="phA108 (antibody, V domains shown, From phage display, then full-length construction; Only the variable regions are tied to the name) VH: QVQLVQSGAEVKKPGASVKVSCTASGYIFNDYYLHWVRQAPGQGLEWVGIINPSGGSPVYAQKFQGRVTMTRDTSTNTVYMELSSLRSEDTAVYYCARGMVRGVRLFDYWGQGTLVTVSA VL: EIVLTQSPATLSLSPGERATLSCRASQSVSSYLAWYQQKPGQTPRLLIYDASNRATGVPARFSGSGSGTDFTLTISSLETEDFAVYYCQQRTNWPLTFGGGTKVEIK" result="0.1 nM"
binder="hu1H2-13 (antibody, V domains shown) VH: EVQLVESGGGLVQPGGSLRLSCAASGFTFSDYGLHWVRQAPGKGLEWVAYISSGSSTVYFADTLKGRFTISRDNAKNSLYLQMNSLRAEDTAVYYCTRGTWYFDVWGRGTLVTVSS VL: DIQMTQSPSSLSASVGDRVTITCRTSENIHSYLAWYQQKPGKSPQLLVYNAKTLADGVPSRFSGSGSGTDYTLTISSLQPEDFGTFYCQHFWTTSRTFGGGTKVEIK" result="0.17 nM"

Numbers sourced from patent US20250296992A1.
